Give IC50 for every item shown.
tested on: A498; assay: Cytotoxicity against human A498 cells by MTT assay; assay type: functional, cell-based
Your answer is read as µg/mL, so omit the unit and give the number.

[ask] Supply measured IC50 of COc1cccc2c1C(=O)c1c(O)c3c(c(O)c1C2=O)C[C@@](O)(C(=O)CO)C[C@@H]3O[C@H]1C[C@H](N)[C@H](O)[C@H](C)O1 in your reply.
[reply] 0.0049

[ask] Supply measured IC50 of C=CCCCCCCCCCCCC(O)CC(O)CO (centres undefined) in your reply.
[reply] 3.6

[ask] Supply measured IC50 of CCCCCCCCCCCCCCCC(O)CC(O)CO (centres undefined) in your reply.
[reply] 2.7

[ask] Supply measured IC50 of C#CCCCCCCCCCCCC(O)CC(O)CO (centres undefined) in your reply.
[reply] 4.1
